Tested on: M. tuberculosis H37Rv growth inhibition with meropenem
Test: dose response, H37Rv, with and without meropenem (AID 434987);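 further: growth over 7 days at 37 °C before Alamar Blue read on day 9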
Details: M. tuberculosis H37Rv growth inhibition; measured here: IC50 without meropenem
measured metric: IC50 (µM)
Report as a plain number; the unit µM is understood.

Reference set (4 entries):
molecule=O=C(Nc1ccccc1Cl)c1csc(-c2cccnc2)n1 assay_target="M. tuberculosis H37Rv growth inhibition with meropenem" experimental_value=82.3
molecule="CCOC(=O)c1ccc(C(=O)NNC(=O)C2CC=CCC2)cc1 (stereo not given)" assay_target="M. tuberculosis H37Rv growth inhibition with meropenem" experimental_value=20.9
molecule=CCCN1C(=O)S/C(=C/c2ccc(N3CCOCC3)o2)C1=O assay_target="M. tuberculosis H37Rv growth inhibition with meropenem" experimental_value=34.9
molecule=CCCCNC(=O)c1onc(CSc2ccc(OC)cc2)c1C(=O)O assay_target="M. tuberculosis H37Rv growth inhibition with meropenem" experimental_value=46.4

## Input What value of measured IC50 is listed for CCOc1ccc2nc(SC3CC(=O)N(c4cccc(OC)c4)C3=O)sc2c1 (stereo not given) ?
## Output 44.2

* * *

Test system: M. tuberculosis H37Rv growth inhibition with meropenem
Test: dose response, H37Rv, with and without meropenem (AID 434987);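 further: growth over 7 days at 37 °C before Alamar Blue read on day 9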
Settings: M. tuberculosis H37Rv growth inhibition; measured here: IC50 without meropenem
measured metric: IC50 (µM)
Report as a plain number; the unit µM is understood.

smiles_notation=CC(C)(C)NCCCOc1ccc(Cl)cc1C(C)(C)C measured_metric=IC50 measurement_units=µM experimental_value=45.9
smiles_notation=C=C(C)C(=O)O[C@H]1C/C(C)=C\C(=O)/C=C(\C)[C@H](O)[C@@H]2OC(=O)C(=C)[C@@H]21 measured_metric=IC50 measurement_units=µM experimental_value=41.1
smiles_notation=COc1ccc(CN(CCC#N)C(=S)NC(=O)c2ccccc2)cc1 measured_metric=IC50 measurement_units=µM experimental_value=79.1

## Input Quick check: IC50 on M. tuberculosis H37Rv growth inhibition with meropenem, item "CCOC(=O)CSc1nnc(NC(=O)c2cccc(S(=O)(=O)N3CCCCC3)c2)s1" ?
## Output 41

* * *

# maps each entry to its IC90
Tested on: M. tuberculosis H37Rv growth inhibition with meropenem
Assay: dose response, H37Rv, with and without meropenem (AID 434987);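 further: growth over 7 days at 37 °C before Alamar Blue read on day 9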
Settings: measured here: IC90 with meropenem

compound=O=c1[nH]c(C2CCN(S(=O)(=O)c3ccc(S(=O)(=O)NC4CC4)cc3)CC2)nc2c1nnn2Cc1ccc(F)cc1 measured_metric=IC90 experimental_value="> 100 µM"
compound=CCN(CCNC(=O)Nc1ccc(Cl)cc1)c1ccccc1 measured_metric=IC90 experimental_value="> 100 µM"
compound=O=C(CCN1C(=O)c2ccccc2S1(=O)=O)Nc1ccc(Cl)cc1 measured_metric=IC90 experimental_value="> 100 µM"
compound=Cc1sc2nc(C(C)(C)C)oc(=O)c2c1C measured_metric=IC90 experimental_value="> 100 µM"
compound="CC1CCCC(NC(=O)COC(=O)c2cccc(NS(=O)(=O)/C=C/c3ccccc3)c2)C1C (configuration not stated)" measured_metric=IC90 experimental_value="> 100 µM"
compound=Cc1noc(NS(=O)(=O)c2ccc(N/C=C\C(=O)c3ccc4c(c3)OCO4)cc2)c1C measured_metric=IC90 experimental_value="86 µM"
compound=O=C1OC(c2ccco2)=N/C1=C\c1ccc(-c2cccc(C(F)(F)F)c2)o1 measured_metric=IC90 experimental_value="53.4 µM"
compound=O=C1COc2ccc(C(=O)CCl)cc2N1 measured_metric=IC90 experimental_value="44.4 µM"
compound=O=C(O)c1cc(-c2ccco2)nc2ccc(Br)cc12 measured_metric=IC90 experimental_value="> 100 µM"
compound=COc1ccc(CNC(=O)c2sc3nc4c(c(C(F)(F)F)c3c2N)CCC4)cc1 measured_metric=IC90 experimental_value="> 100 µM"

## Input What value of measured IC90 is listed for "CC(C)C[C@H](NC(=O)c1nc[nH]c1C(=O)N1CCN(C(=O)OC(C)(C)C)CC1)C(=O)OCc1ccccc1" ?
## Output 54.9 µM

## Input What value of measured IC90 is listed for Cc1ccc(NC(=O)C2(c3ccccc3)CC2(Cl)Cl)cc1C (configuration not stated) ?
## Output > 100 µM

## Input What value of measured IC90 is listed for "Cn1cc(C(=O)N/N=C/C(Br)=C\c2ccccc2)ccc1=O" ?
## Output > 100 µM

## Input What value of measured IC90 is listed for "O=C(Nc1c2c(nc3ccccc13)CCCC2)c1ccccc1F" ?
## Output > 50 µM

## Input What value of measured IC90 is listed for COc1ccc(C(=O)Nc2ccccc2C(=O)NC(C(=O)NCc2ccco2)C(C)C)cc1 (configuration not stated) ?
## Output > 100 µM

## Input What value of measured IC90 is listed for "COc1ccccc1N1CCN(/N=C/c2cccc(OC)c2OC)CC1" ?
## Output > 100 µM

## Input What value of measured IC90 is listed for "CC(C)(C)Nc1nc(Nc2ccc([N+](=O)[O-])cc2)nc(NC(C)(C)C)n1" ?
## Output > 100 µM

## Input What value of measured IC90 is listed for C=CCC(Nc1ccccc1)C12C=CC(O1)C(C(=O)OC)=C2C(=O)OC (configuration not stated) ?
## Output > 100 µM

## Input What value of measured IC90 is listed for "CCCC1=C/C(=C/c2ccc(-c3ccccc3OC)o2)C(=O)O1" ?
## Output > 100 µM
